experimental.endpoint: melting point

Known results for compounds:
compound="Cc1ccc(COc2ccc(C[C@H](NC(=O)c3cc4cc(C#Cc5ccccc5)ccc4s3)C(=O)O)cc2)cc1 [Example C140]" assay_result="204 to 207 °C"
compound="O=C(N[C@@H](Cc1ccc(OCc2ccccc2)cc1)C(=O)O)c1cc2cc(C#Cc3ccccc3)ccc2s1 [Example C139]" assay_result="198 to 199 °C"
compound="O=C(NC(Cc1ccc(OCc2ccc(F)cc2)cc1)C(=O)O)c1nc2ccc(-c3ccc(Cl)cc3)cc2[nH]1 (stereo not drawn) [Example C168]" assay_result="258 to 259 °C"
compound="O=C(N[C@@H](Cc1ccc(OCc2ccccc2)cc1)C(=O)O)c1cc2cc(-c3ccc(Cl)cc3)ccc2[nH]1 [Example C165]" assay_result="239 to 240 °C"
compound="O=C(N[C@@H](Cc1ccc(OCc2ccc(F)cc2)cc1)C(=O)O)c1cc2cc(-c3ccc(Cl)cc3)ccc2s1 [Example C133]" assay_result="189 to 190 °C"

// switching to the query compound
Qu. Looking for the measured melting point of Nc1cccc(COc2ccc(CC(=O)NC3(C(=O)O)Cc4ccc(-c5ccc(Cl)cc5)cc4C3)cc2)c1 (stereo not drawn) [Example B192] , can you help?
Ans. 191 to 192 °C
